# half-life annotations
# test description: in vivo
# assay conditions: Wistar, rat, iv, 10 ug/kg
Where no end group is shown, it is not given here. [ ]: non-standard residue; d: D form. The star is where a group is joined. Hexanoyl = CCCCCC(=O)*; Aib = CC(C)(N)C(=O)O

# substance, half-life
rows = [
    ("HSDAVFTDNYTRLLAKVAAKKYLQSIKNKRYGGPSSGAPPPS [Agonist P89]", "1.32 min"),
    ("Hexanoyl-HSDAVFTDNYTRLR[Aib]QVAAK[Aib]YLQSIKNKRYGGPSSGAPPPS [Agonist P264]", "1.3 min"),
    ("Hexanoyl-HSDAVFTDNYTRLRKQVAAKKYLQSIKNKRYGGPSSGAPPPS [Agonist P31]", "12 min"),
    ("Hexanoyl-HSDAVFTDNYTRLR[Aib]QVAA[Aib]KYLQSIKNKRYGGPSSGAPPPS [Agonist P261]", "3.2 min"),
]
